PROTOCOL DESCRIPTION: Growth inhibition of african green monkey Vero cells assessed as BrdU incorporation at 163.0 uM after 72 hrs by spectrophotometry
Format: cell-based
TEST CONDITIONS: chlorocebus sabaeus, read-out: GI
ASSAY READOUT: inhibition at 72 h, 163 µM (%)
Record the value in %, omitting the unit from your answer.

Query: inhibition at 72 h, 163 µM; subject: `NNC(=O)c1nnc2n(c1=O)CCN2c1cccc(Cl)c1`
29

* * *

PROTOCOL DESCRIPTION: Cytotoxicity against HSF cells assessed as cell viability at 1 uM after 24 hrs by MTT assay relative to control
Type: cell-based
TEST CONDITIONS: human, read-out: Activity
Recorded viability at 24 h, 1 µM by entry
Record the value in %, omitting the unit from your answer.

Use these answered entries as a reference point.
In [3]: df
Out[3]:
                              record_smiles  value
0       Cc1ccc(N2CCn3c2nnc(C(=O)NN)c3=O)cc1    109
1     CCOC(=O)c1nnc2n(c1=O)CCN2c1ccc(OC)cc1    104
2  CCOC(=O)c1nnc2n(c1=O)CCN2c1ccc(Cl)c(Cl)c1    102
3      COc1ccc(N2CCn3c2nnc(C(=O)NN)c3=O)cc1     98
4      NNC(=O)c1nnc2n(c1=O)CCN2c1cccc(Cl)c1    108
5     CCOC(=O)c1nnc2n(c1=O)CCN2c1cccc(Cl)c1    104

Query: viability at 24 h, 1 µM; subject: `CCOC(=O)c1nnc2n(c1=O)CCN2c1ccc(C)cc1`
91

Query: viability at 24 h, 1 µM; subject: `NNC(=O)c1nnc2n(c1=O)CCN2c1ccccc1`
82

Query: viability at 24 h, 1 µM; subject: `CCOC(=O)c1nnc2n(c1=O)CCN2c1ccccc1`
91.6

* * *

PROTOCOL DESCRIPTION: Growth inhibition of HSF cells assessed as BrdU incorporation at 155.9 uM after 72 hrs by spectrophotometry
Assay type: cell-based
TEST CONDITIONS: human, read-out: GI
ASSAY READOUT: inhibition at 72 h, 155.9 µM (%)
Record the value in %, omitting the unit from your answer.

Query: inhibition at 72 h, 155.9 µM; subject: `CCOC(=O)c1nnc2n(c1=O)CCN2c1cccc(Cl)c1`
17

* * *

PROTOCOL DESCRIPTION: Growth inhibition of HSF cells assessed as BrdU incorporation at 32.6 uM after 72 hrs by spectrophotometry
Assay type: cell-based
TEST CONDITIONS: human, read-out: GI
ASSAY READOUT: inhibition at 72 h, 32.6 µM (%)
Record the value in %, omitting the unit from your answer.

Query: inhibition at 72 h, 32.6 µM; subject: `NNC(=O)c1nnc2n(c1=O)CCN2c1cccc(Cl)c1`
0

* * *

PROTOCOL DESCRIPTION: Growth inhibition of HSF cells assessed as BrdU incorporation at 31.2 uM after 72 hrs by spectrophotometry
Format: cell-based
TEST CONDITIONS: human, read-out: GI
ASSAY READOUT: inhibition at 72 h, 31.2 µM (%)
Record the value in %, omitting the unit from your answer.

Query: inhibition at 72 h, 31.2 µM; subject: `CCOC(=O)c1nnc2n(c1=O)CCN2c1cccc(Cl)c1`
16
